- test details: physchem
- Assay type: physicochemical
- cond: simulated gastric solution, pH 4
observable: remaining at 2.5 min (%)
Value expressed in %; do not type the unit.

q: Could you share which remaining at 2.5 min value was measured for "CN(CC(=O)O)C(=N)N" ?
a: 16

---

- test details: physchem
- Type: physicochemical
- cond: simulated gastric solution, pH 4
observable: remaining at 0.05 h (%)
Just the number please, in %, no unit attached.

q: What value of measured remaining at 0.05 h is listed for "CN(CC(=O)O)C(=N)N" ?
a: 0.5

---

- test details: physchem
- Type: physicochemical
- cond: simulated gastric solution, pH 4
- Protocol: TABLE 2 Change in creatine with time at pH 4 The determination was based upon formation of creatinine under buffered incubation conditions. A solution of 1% creatine in simulated gastric solution (0.5% betain/pepsin in 1M HEPES buffer pH controlled with 5M HC1 and 5N NaOH). Creatinine determination performed by PDA spectrophotometer in kinetic mode, scanning at 15 sec intervals with an integration time of 0.5 sec. Detection in 1 cm path length flow call at 37°C with test analyte flowing at 1 ml/min. […]
observable: remaining at 0.5 min (%)
The answer is to be given in %; state only the numeric part.

q: Name the recorded remaining at 0.5 min for "CN(CC(=O)O)C(=N)N" .
a: 86
